Data origin, for the record: ChEMBL document CHEMBL3612004

assay: Cytotoxicity against human HuH7 cells assessed as cell viability by Alamar Blue assay; assay type: cell-based, Huh-7
Please provide measured CC50 for the entries that follow.

Can you look up the measured CC50 of CCOC(=O)c1c(C)nc(NCCCC(C)Nc2cc(OC)cc3cccnc23)nc1-c1ccc(OC)cc1 (centres undefined) for me?
> 100 µM

So what does the record say about CC50 for CCOC(=O)c1c(C)nc(NCCCC(C)Nc2cc(OC)cc3cccnc23)nc1-c1ccccc1 (centres undefined) ?
> 100 µM

Name the recorded CC50 for CCOC(=O)c1c(C)nc(NCCCC(C)Nc2cc(OC)cc3cccnc23)nc1C (centres undefined) .
61 µM

So what's the measured CC50 for this one? COc1cc(NC(C)CCCNc2nc(C)c(C(=O)OC(C)C)c(-c3cccc([N+](=O)[O-])c3)n2)c2ncccc2c1 (centres undefined)
> 100 µM

###

experiment: Selectivity index, ratio of CC50 for human HuH7 cells to IC50 for liver-stage of Plasmodium berghei expressing firefly luciferase infected in human Huh-7 cells; format: functional
measurement type: Ratio CC50/IC50

Given the entry CCOC(=O)c1c(C)nc(NCCCC(C)Nc2cc(OC)cc3cccnc23)nc1-c1ccccc1 (centres undefined) , report its measured Ratio CC50/IC50.
>79.3

Quick one: Ratio CC50/IC50 of CCOC(=O)c1c(C)nc(NCCCC(C)Nc2cc(OC)cc3cccnc23)nc1-c1ccc(OC)cc1 (centres undefined) ?
>63.6

For the molecule shown here, COc1cc(NC(C)CCCNc2nc(C)c(C(=O)OC(C)C)c(-c3cccc([N+](=O)[O-])c3)n2)c2ncccc2c1 (centres undefined) , give the reported Ratio CC50/IC50.
>66.6

Which Ratio CC50/IC50 is reported for this molecule? CCOC(=O)c1c(C)nc(NCCCC(C)Nc2cc(OC)cc3cccnc23)nc1C (centres undefined)
32.6
